test: Hepatocyte stability assay, mouse; assay type: in vitro ADME; conditions: mouse, hepatocytes, T½
readout-name: log10 half-life at 10 μM (log10 of the value in h)
Values below are the log10 of the recorded half-life at 10 μM, with h as the unit.

Example compounds with recorded log10 half-life at 10 μM:
C=C(CC(=O)N[C@@H](C)c1ccc(S(F)(F)(F)(F)F)cc1)C(=O)O : 0.44
C=C(CC(=O)N[C@@H](C)c1ccc(C(F)(F)F)c(F)c1)C(=O)O : 0.83
C=C(CC(=O)NC1(c2ccc(C(F)(F)F)cc2)CCCC1)C(=O)O : 0.81
C=C(CC(=O)N[C@@H](C)c1ccc(C(F)(F)F)cn1)C(=O)OC1CCN(S(C)(=O)=O)CC1 : -0.23
C=C(CC(=O)N[C@@H](C)c1ccc(C(F)(F)F)cn1)C(=O)OC1CS(=O)(=O)C1 : -0.78
C=C(CC(=O)NC1(c2ccc(C(F)(F)F)cc2)CCC1)C(=O)O : 0.88
C=C(CC(=O)N[C@@H](C)c1ccc(C(F)(F)F)cc1)C(=O)OC1CCN(S(C)(=O)=O)CC1 : -0.66
C=C(CC(=O)N[C@@H](C)c1ccc(Br)cc1)C(=O)O : 0.61

Could you tell me log10 half-life at 10 μM for each of these compounds? They are listed below.
1. C=C(CC(=O)NCc1ccc(Cl)cc1)C(=O)OC1CCN(S(C)(=O)=O)CC1
2. C[C@H](NC(=O)C/C(=C\c1ccccc1)C(=O)O)c1ccc(C(F)(F)F)cc1
3. C=C(CC(=O)NC1(c2ccc(C(F)(F)F)cc2)CCC1)C(=O)OC1CCN(S(C)(=O)=O)CC1
4. C=C(CC(=O)N[C@@H](C)c1ccc(C(F)(F)F)cn1)C(=O)OC1CN(C(C)=O)C1
5. CC(C)C/C=C(\CC(=O)N[C@@H](C)c1ccc(C(F)(F)F)cc1)C(=O)O

[0.21, 0.34, -1.23, -0.44, -0.10]

Please state, for each entry, its recorded log10 half-life at 10 μM.
1. C=C(C(=O)O)C(C)C(=O)N[C@@H](C)c1ccc(C(F)(F)F)cc1 (single isomer, unassigned; isomer 1)
2. C=C(CC(=O)NC(c1ccc(C(F)(F)F)cc1)C(F)(F)F)C(=O)O (stereo not drawn)
3. C=C(CC(=O)N[C@@H](C)c1ccc(C(F)(F)F)cc1)C(=O)OC1CS(=O)(=O)C1
4. C=C(CC(=O)N[C@H](c1ccc(C(F)(F)F)cc1)C(F)(F)F)C(=O)O
5. C=C(CC(=O)N[C@@H](C)c1ccc(C(F)(F)F)cn1)C(=O)OC1CCN(C)CC1
6. C=C(CC(=O)N[C@@H](C)c1ccc(C(F)(F)F)cc1)C(=O)OC1CCN(C)CC1
7. C=C(C(=O)O)C(C)C(=O)NC(C)(C)c1ccc(C(F)(F)F)cc1 (single isomer, unassigned; isomer 1)
8. CC/C=C(\CC(=O)N[C@@H](C)c1ccc(C(F)(F)F)cc1)C(=O)O

1. 0.82
2. 0.10
3. -1.00
4. -0.44
5. -0.48
6. -0.88
7. 0.86
8. 0.43

// batch mode: one log10 half-life at 10 μM value per listed entry
1. C=C(CC(=O)NC1CCCCCCC1)C(=O)OC1CCN(S(C)(=O)=O)CC1
2. CC(C)/C=C(\CC(=O)N[C@@H](C)c1ccc(C(F)(F)F)cc1)C(=O)O

-0.01
0.60

I have this compound here, C=C(CC(=O)N[C@@H](C)c1ccc(C(F)(F)F)cc1)C(=O)OCCNS(C)(=O)=O , and I need its recorded log10 half-life at 10 μM.
-0.74
